test: In vitro dog hepatocyte stability; assay type: in vitro ADME
Could you please report measured t_half for the items listed next?
Give just the numeric value; min need not be written.

Entry CNCc1cc(-c2cc3c(N[C@@H](c4ccc5c(c4)S(=O)(=O)CCC5)C(C)C)ncnc3[nH]2)co1 [ASAP-0011176] has what t_half?
94.9

Entry CC(C)[C@@H](Nc1ncnc2[nH]c(-c3cnn(C)c3C#N)cc12)c1ccc2c(n1)OCCO2 [ASAP-0010716] has what t_half?
177.0

Entry CC(C)[C@H](Nc1ncnc2[nH]c(-c3cnn(C)c3C#N)cc12)c1ccc2c(n1)OCCO2 [ASAP-0010715] has what t_half?
231.0

Entry Cn1ncc(-c2cc3c(N[C@@H](c4ccc5c(n4)OCCO5)C(C)(C)C)ncnc3[nH]2)c1C#N [ASAP-0011221] has what t_half?
182.0

---

target: 5-HT3 (h) (Homo sapiens, UniProt P46098); construct: purchased Eurofins Cerep (SafetyScreen44), recognised from the panel format; assay: In vitro CEREP profiling, 5-HT3 (h) (antagonist radioligand); format: binding; conditions: test compound concentration 10 uM
Sequence (P46098 24-478): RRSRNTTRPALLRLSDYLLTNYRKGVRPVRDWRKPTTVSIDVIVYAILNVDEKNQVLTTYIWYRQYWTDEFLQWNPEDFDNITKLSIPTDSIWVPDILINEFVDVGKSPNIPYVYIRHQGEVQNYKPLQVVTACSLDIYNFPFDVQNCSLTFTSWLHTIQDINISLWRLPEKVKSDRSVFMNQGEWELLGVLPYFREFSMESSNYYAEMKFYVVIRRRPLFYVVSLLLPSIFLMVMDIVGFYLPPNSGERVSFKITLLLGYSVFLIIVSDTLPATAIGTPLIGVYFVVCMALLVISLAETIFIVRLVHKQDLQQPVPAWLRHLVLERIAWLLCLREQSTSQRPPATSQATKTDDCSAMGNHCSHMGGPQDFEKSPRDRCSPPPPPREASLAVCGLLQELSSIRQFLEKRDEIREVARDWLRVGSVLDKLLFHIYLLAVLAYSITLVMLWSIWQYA
Label criterion not met if perc_inhibition (% inhibition of the binding of a ligand specific for each target) falls below 6%; label criterion met in every other case.

Please tell me: is the compound "CNCc1cc(-c2cc3c(N[C@@H](c4ccc5c(c4)S(=O)(=O)CCC5)C(C)C)ncnc3[nH]2)co1" at or over 6% in terms of perc_inhibition (% inhibition of the binding of a ligand specific for each target)?
criterion not met

Please tell me: is the compound "CC(C)[C@H](Nc1ncnc2[nH]ccc12)c1ccc2c(c1)S(=O)(=O)CCC2" at or over 6% in terms of perc_inhibition (% inhibition of the binding of a ligand specific for each target)?
criterion met

Please tell me: is the compound "Cn1ncc(-c2cc3c(N[C@@H](c4ccc5c(n4)OCCO5)C(C)(C)C)ncnc3[nH]2)c1C#N" at or over 6% in terms of perc_inhibition (% inhibition of the binding of a ligand specific for each target)?
criterion not met

Please tell me: is the compound "C[C@H](C(=O)O)[C@@H](NC(=O)c1ncnc2[nH]ccc12)c1ccc(Br)cc1" at or over 6% in terms of perc_inhibition (% inhibition of the binding of a ligand specific for each target)?
criterion not met

Please tell me: is the compound "CC(C)[C@@H](Nc1ncnc2[nH]c(-c3cnn(C)c3C#N)cc12)c1ccc2c(n1)OCCO2" at or over 6% in terms of perc_inhibition (% inhibition of the binding of a ligand specific for each target)?
criterion not met

---

experiment: Hepatic microsomal stability, HLM; format: in vitro ADME, human; conditions: In vitro human liver microsomal stability; no cofactor
Could you please report measured perc_remaining_no_cofactor for the items listed next?
Give just the numeric value; % need not be written.

Entry CNC(=O)c1cc2c(N[C@@H](c3ccc4c(c3)S(=O)(=O)CCC4)C(C)C)ncnc2[nH]1 (single isomer, unassigned) [ASAP-0012346] has what perc_remaining_no_cofactor?
94.0

Entry CNC(=O)c1c[nH]c2ncnc(N[C@H](c3ccc4c(c3)NC(=O)CO4)C(C)C)c12 (racemic) [ASAP-0008637] has what perc_remaining_no_cofactor?
98.0

Entry CNC(=O)c1c[nH]c2ncnc(N[C@@H](c3ccc4c(c3)S(=O)(=O)CCC4)C(C)C)c12 [ASAP-0011156] has what perc_remaining_no_cofactor?
94.0

Entry CC(C)[C@@H](Nc1ncnc2[nH]ccc12)c1ccc2c(c1)S(=O)(=O)CCO2 [ASAP-0012318] has what perc_remaining_no_cofactor?
92.0

Entry CNC(=O)c1cccc(-c2cc3c(N[C@@H](c4ccc5c(c4)S(=O)(=O)CCC5)C(C)C)ncnc3[nH]2)c1 [ASAP-0012344] has what perc_remaining_no_cofactor?
93.0

Entry CC(C)[C@H](Nc1ncnc2[nH]c(C(=O)N[C@@H]3CCN(C)C3)cc12)c1ccc2c(c1)S(=O)(=O)CCC2 [ASAP-0011196] has what perc_remaining_no_cofactor?
100.0

Entry COc1ccc(C(NC(=O)c2ncnc3[nH]ccc23)C(C)c2nnn[nH]2)cc1 (mixture of isomers) [ASAP-0010744] has what perc_remaining_no_cofactor?
103.0

Entry CCNC(=O)c1cc2c(N[C@H](c3ccc4c(c3)OCCO4)C(C)C)ncnc2[nH]1 (single isomer, unassigned) [ASAP-0013827] has what perc_remaining_no_cofactor?
97.0

Entry CC(C)(C)[C@H](Nc1ncnc2[nH]c(-c3cnn(CC(N)=O)c3)cc12)c1ccc2c(c1)OCCO2 (single isomer, unassigned) [ASAP-0012332] has what perc_remaining_no_cofactor?
109.0

Entry CC(C)[C@H](Nc1ncnc2[nH]c(-c3cnn(CC(=O)N(C)C)c3)cc12)c1ccc2c(c1)OCCO2 (single isomer, unassigned) [ASAP-0013837] has what perc_remaining_no_cofactor?
114.0

Entry CCNC(=O)c1cc2c(NC(c3ccc4c(c3)OCCO4)C(C)C)ncnc2[nH]1 (centres unmarked) [ASAP-0008444] has what perc_remaining_no_cofactor?
103.0

Entry CCNC(=O)c1cc2c(NC(c3ccc4c(c3)S(=O)(=O)CCC4)C(C)C)ncnc2[nH]1 (centres unmarked) [ASAP-0012349] has what perc_remaining_no_cofactor?
102.0

Entry COCCNC(=O)c1c[nH]c2ncnc(N[C@H](c3ccc4c(c3)S(=O)(=O)CCC4)C(C)C)c12 (racemic) [ASAP-0008650] has what perc_remaining_no_cofactor?
106.0

Entry CC(C)[C@@H](Nc1ncnc2[nH]c(-c3cnn(CC(N)=O)c3)cc12)c1ccc2c(c1)OCCO2 [ASAP-0008288] has what perc_remaining_no_cofactor?
103.0

Entry CC(C)[C@@H](Nc1ncnc2[nH]c(-c3cnn(CC(=O)N(C)C)c3)cc12)c1ccc2c(c1)OCCO2 [ASAP-0008485] has what perc_remaining_no_cofactor?
110.0

Entry CNC(=O)c1cc2c(N[C@@H](c3ccc4c(c3)NC(=O)CO4)C(C)C)ncnc2[nH]1 [ASAP-0008571] has what perc_remaining_no_cofactor?
94.0

Entry CNC(=O)Cn1cc(-c2cc3c(N[C@H](c4ccc5c(c4)S(=O)(=O)CCC5)C(C)C)ncnc3[nH]2)cn1 (single isomer, unassigned) [ASAP-0011171] has what perc_remaining_no_cofactor?
101.0

Entry CC(C)[C@@H](Nc1ncnc2[nH]c(-c3ccc4cncn4c3)cc12)c1ccc2c(c1)S(=O)(=O)CCC2 [ASAP-0011215] has what perc_remaining_no_cofactor?
97.0

Entry CNC(=O)c1cccc(-c2cc3c(N[C@H](c4ccc5c(c4)S(=O)(=O)CCC5)C(C)C)ncnc3[nH]2)c1 (single isomer, unassigned) [ASAP-0012338] has what perc_remaining_no_cofactor?
99.0

Entry COc1ccc2c(c1)CCN(c1ncnc3[nH]ccc13)[C@H]2C(C)C (racemic) [ASAP-0000502] has what perc_remaining_no_cofactor?
103.0

Entry CC(C)[C@@H](Nc1ncnc2[nH]c(-c3cnn(CC(N)=O)c3)cc12)c1ccc2c(c1)S(=O)(=O)CCC2 [ASAP-0011432] has what perc_remaining_no_cofactor?
103.0

Entry CC(C)[C@H](Nc1ncnc2[nH]c(-c3cnn(C)c3C#N)cc12)c1ccc2c(c1)S(=O)(=O)CCC2 (single isomer, unassigned) [ASAP-0011144] has what perc_remaining_no_cofactor?
101.0

Entry CC(C)[C@@H](Nc1ncnc2[nH]c(-c3cnn(C)c3C#N)cc12)c1ccc2c(c1)OCCO2 [ASAP-0011033] has what perc_remaining_no_cofactor?
101.0

Entry CC(C)[C@H](Nc1ncnc2[nH]c(-c3cnn(CC(N)=O)c3)cc12)c1ccc2c(c1)OCCO2 (single isomer, unassigned) [ASAP-0008450] has what perc_remaining_no_cofactor?
90.0

Entry CC(C)[C@@H](Nc1ncnc2[nH]c(-c3cnn(C)c3C#N)cc12)c1ccc2c(c1)S(=O)(=O)CCC2 (single isomer, unassigned) [ASAP-0011147] has what perc_remaining_no_cofactor?
101.0

Entry CNCc1cc(-c2cc3c(N[C@H](c4ccc5c(c4)S(=O)(=O)CCC5)C(C)C)ncnc3[nH]2)co1 (single isomer, unassigned) [ASAP-0011169] has what perc_remaining_no_cofactor?
98.0
